- Test system: Wnt5a (protein binding on small-molecule microarray)
- assay explanation: Wnt5a binders on small-molecule microarray, primary screen, biophysical, 635/667 nm fluorescence (AID 1142);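 note: fluorescence read at 667 nm with signal to noise per printed feature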
- recorded conditions: 635 nm fluorescence, higher = more signal
I would appreciate it if you labelled entries YES when composite z-score is 0.3 or higher, otherwise NO.

molecule	label value
NC(=O)N1C(=O)C2C(C1=O)C1C=C(c3ccc(CO)cc3)C2C(C2CC2)N1Cc1cc2c(cc1Br)OCO2 (centres undefined)	NO
CCCNC(=O)[C@@H]1c2ccccc2C(=O)N(Cc2cc(C(F)(F)F)cc(C(F)(F)F)c2)[C@H]1c1ccc(CO)cc1	YES
O=C(O)[C@H]1C[C@H]2C(=O)N[C@@H](Cc3ccccc3)C(=O)N2[C@H]1c1ccc(O)cc1	NO
COCCOC(=O)N1C(=O)[C@@]2(c3ccccc31)[C@H](C(=O)Nc1nc3ccccc3s1)[C@H]1C(=O)O[C@H](c3ccccc3)[C@H](c3ccccc3)N1[C@@H]2c1ccc(O)cc1	YES
CC(C)C(=C=CC[C@@H](O)c1ccc(CO)o1)CCO	YES
CO[C@H]1O[C@H](CO)[C@@H](OC(=O)Nc2ccccc2)[C@H](OC(=O)Nc2ccccc2-c2ccccc2)[C@H]1OC(=O)Nc1ccccc1-c1ccccc1	NO
CCCCC(=C=CC[C@@H](O)c1ccc(OCCO)cc1)C[C@@H](O)c1cc(Cl)cc(Cl)c1O	NO
COCCCNC(=O)[C@@]1(Cc2ccccc2)N=C(c2ccc(OCCCO)cc2)O[C@H]1c1ccccc1N=[N+]=[N-]	YES
C=C(CCCC)/C(=C/C[C@H](OC(=O)c1ccncc1)c1ccc(CO)o1)c1cnc2ccccc2c1	NO
COCCCNC(=O)[C@@]1(Cc2ccccc2CN=[N+]=[N-])COC(c2ccc(OCCCO)cc2)=N1	YES
O=C1O[C@@H](c2ccccc2)[C@@H](c2ccccc2)N2[C@@H](c3ccc(OCCO)cc3)[C@]3(C(=O)Nc4ccc(C#CC5(O)CCCCCC5)cc43)[C@@H](C(=O)NC[C@H](O)c3ccccc3)[C@H]12	YES
C=CCNC(=O)[C@@H]1[C@H]2C(=O)O[C@H](c3ccccc3)[C@H](c3ccccc3)N2[C@H](c2ccc(O)cc2)[C@@]12C(=O)N(C(=O)OCCOC)c1ccc(C#Cc3ccc(OC)cc3)cc12	YES
CC(C)(C)OC(=O)CC[C@@]12N=C(c3ccc(OCCCO)cc3)O[C@@H]1c1ccccc1N(Cc1ccccc1)C2=O	NO
Cc1ccc(N2C(=O)c3ccccc3[C@](C)(C(=O)NCC(F)(F)F)[C@@H]2c2ccc(CO)cc2)nc1	NO
